Cited source for all entries: patent US9415055B2

- Assayed System: P2X7 receptor (Homo sapiens (Human), UniProt Q99572)
- Sequence (Q99572 whole entry): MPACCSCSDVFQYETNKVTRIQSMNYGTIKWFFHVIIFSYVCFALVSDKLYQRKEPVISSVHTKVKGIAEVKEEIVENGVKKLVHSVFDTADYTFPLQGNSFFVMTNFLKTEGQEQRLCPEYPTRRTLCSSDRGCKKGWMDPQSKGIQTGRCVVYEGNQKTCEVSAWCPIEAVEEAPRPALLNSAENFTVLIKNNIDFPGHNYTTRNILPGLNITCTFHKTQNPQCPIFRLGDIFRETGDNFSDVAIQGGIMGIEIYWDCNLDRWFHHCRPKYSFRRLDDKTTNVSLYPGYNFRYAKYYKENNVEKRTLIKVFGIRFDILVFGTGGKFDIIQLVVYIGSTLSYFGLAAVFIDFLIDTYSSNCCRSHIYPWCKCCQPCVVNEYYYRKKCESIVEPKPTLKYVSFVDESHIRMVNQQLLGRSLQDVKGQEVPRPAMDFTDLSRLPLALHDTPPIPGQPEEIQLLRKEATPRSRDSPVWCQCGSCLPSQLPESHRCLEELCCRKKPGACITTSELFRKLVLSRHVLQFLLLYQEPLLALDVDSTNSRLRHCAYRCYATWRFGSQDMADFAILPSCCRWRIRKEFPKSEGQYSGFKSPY
- Measurement Description: P2X7 FLIPR assay: antagonism of BzATP response in 293 HEK cells stably expressing P2X7 receptor
- Run Parameters: FLIPR fluorescence (Fluo-4), agonist BzATP, 293 HEK cells stably transfected with P2X7 receptor
Property: IC50 (nM)

{"columns": ["Compound", "Assayed System", "Property", "Assay Result"],
 "data": [
  ["COc1ccc(F)c(C(=O)NCC(c2cnc(C(F)(F)F)nc2)N2CCC(F)(F)CC2)c1Cl (single isomer, unassigned; (+)) [(+)2-chloro-N-[2-(4,4-difluoro-1-piperidyl)-2-[2-(trifluorom]", "P2X7 receptor (Homo sapiens (Human), UniProt Q99572)", "IC50", 8.9]
]}

[1] Cc1ncc(C(CNC(=O)c2cccc(Cl)c2Cl)N2CC3CCC2C3)cn1 (centres unmarked)
[2] Cc1ccc(C(CNC(=O)c2cccc(Cl)c2Cl)N2CCOCC2)cn1 (single isomer, unassigned; (+))
[3] O=C(NCC(c1cnc(C(F)(F)F)nc1)N1CCC(F)CC1)c1ccccc1Cl (single isomer, unassigned; (+)) [(+)2-chloro-N-[2-(4-fluoro-1-piperidyl)-2-[2-(trifluoromethy]
[4] O=C(NCC(c1ccc(Cl)nc1)N1CCOCC1)c1cccc(Cl)c1Cl (centres unmarked)
[5] O=C(NCC(c1cnc(C(F)F)nc1)N1CCOCC1)c1cccc(Cl)c1Cl (single isomer, unassigned; (-)) [(−)2,3-dichloro-N-[2-[2-(difluoromethyl)pyrimidin-5-yl]-2-mo]
(Q) Hey, can you sort those compounds up there by IC50, smallest first? Dear reader, please state the labels in the requested order.
(A) 4, 5, 3, 2, 1

[A] Cc1ncc(C(CNC(=O)c2ccccc2Cl)N2CCC(F)CC2)cn1 (single isomer, unassigned; (+)) [(+)2-chloro-N-[2-(4-fluoro-1-piperidyl)-2-(2-methylpyrimidin]
[B] Cn1cc(C(CNC(=O)c2cccc(Cl)c2Cl)N2CCC(F)(F)CC2)cn1 (single isomer, unassigned; (-)) [(−)2,3-dichloro-N-[2-(4,4-difluoro-1-piperidyl)-2-(1-methylp]
[C] O=C(NCC(c1ccc(C(F)(F)F)nc1)N1CCOCC1)c1cccc(C(F)(F)F)c1Cl (single isomer, unassigned; (-)) [(−)2-chloro-N-[2-morpholino-2-[6-(trifluoromethyl)-3-pyridyl]
(Q) Rank entries according to their IC50, from the largest number down. Dear reader, please state the labels in the requested order.
(A) A, B, C
(A: 50 nM, B: 25 nM, C: 12 nM)

[I] Cc1ncc(C(CNC(=O)c2cccc(Cl)c2Cl)N2CCOCC2)cn1 (single isomer, unassigned; (+)) [(+)2,3-dichloro-N-[2-(2-methylpyrimidin-5-yl)-2-morpholino-e]
[II] Cc1ncc(C(CNC(=O)c2ccccc2Cl)N2CCC(F)CC2)cn1 (single isomer, unassigned; (-)) [(−)2-chloro-N-[2-(4-fluoro-1-piperidyl)-2-(2-methylpyrimidin]
(Q) Among I and II , whose measured IC50 is the smaller figure? Respond with the label that goes with your answer.
(A) II
(II: 45 nM, I: 69 nM)
